src = ChEMBL document CHEMBL1201862

Parameter GI50: see the listing below.
Test system: SNB-19
assayRemarks: NCI tumour cell line growth inhibition, 48 h
Calls of active or inactive are those of the source. No stated cut-off is given here; in the data, active = GI50 up to about 1.1 µM and inactive = higher.
recordedEndpoint: GI50

>>> experimentalresult("COc1ccc2nc(-c3ccccc3)c(=O)[nH]c2c1")
"> 100 µM (inactive)"
>>> experimentalresult("CCOC(=O)CN1CCS/C1=N/C#N")
"> 100 µM (inactive)"
>>> experimentalresult("CN(C)CCOC1(Cc2ccc(Cl)cc2Cl)CCC(C(C)(C)C)CC1 (stereo not drawn)")
"2.22 µM (inactive)"
>>> experimentalresult("COC1(OC)CCN(Cc2ccccc2)C1=O")
"17.8 µM (inactive)"
>>> experimentalresult("Cc1nc2ccccc2n1CCc1nc2ccccc2s1")
"> 100 µM (inactive)"
>>> experimentalresult("CC(=O)Oc1c2c(c(O)c3ccccc13)C(n1cnc3c(ncn3C3OC(CO)C4OC(C)(C)OC43)c1=N)CCC2 (stereo not drawn)")
"16 µM (inactive)"
>>> experimentalresult("FC1OC2OC1C(OCc1ccccc1)C(OCc1ccccc1)C2OCc1ccccc1 (stereo not drawn)")
"84.9 µM (inactive)"
>>> experimentalresult("CC(C)C(=O)OCC1CCCN2CCCCC12 (stereo not drawn)")
"> 100 µM (inactive)"
